molecular target: recombinant soluble homotrimeric HA of A/Japan/305/57 (H2N2) (Influenza A virus A/Japan/305/1957(H2N2)); experiment: trimeric HA microarray, transfection supernatant set 2; settings: remark: other sources report otherwise
endpointName: Trimeric HA Binding: RLU

{"binder": "TCN-522 (3212_I12) (antibody, V domains shown) VH: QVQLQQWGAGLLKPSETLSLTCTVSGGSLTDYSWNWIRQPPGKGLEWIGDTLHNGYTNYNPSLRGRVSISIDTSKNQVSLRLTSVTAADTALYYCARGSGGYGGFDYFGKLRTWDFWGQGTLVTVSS VL: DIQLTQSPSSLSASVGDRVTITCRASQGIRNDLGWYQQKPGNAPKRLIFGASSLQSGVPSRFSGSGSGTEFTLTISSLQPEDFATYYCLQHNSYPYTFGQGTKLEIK", "result": "11900 RLU"}
{"binder": "TCN-563 (5237_B21) (antibody, V domains shown) VH: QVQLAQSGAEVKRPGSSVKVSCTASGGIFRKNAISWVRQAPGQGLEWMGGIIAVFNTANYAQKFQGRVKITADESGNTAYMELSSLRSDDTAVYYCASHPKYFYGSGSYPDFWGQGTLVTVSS VL: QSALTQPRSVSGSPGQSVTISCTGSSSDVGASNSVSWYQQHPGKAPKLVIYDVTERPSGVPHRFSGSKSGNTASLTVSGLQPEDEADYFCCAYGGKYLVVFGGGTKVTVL", "result": "11200 RLU"}
